This listing pairs compounds with measured β2 Intrinsic Activity.
Measured on: Adrenergic β2 (Homo sapiens, UniProt P07550)
Construct: Adherent H292 cells are removed from tissue culture flasks by treatment with Accutase™ cell detachment solution; endogenous in cells; host or cells: H292 cells
Sequence (P07550 whole entry): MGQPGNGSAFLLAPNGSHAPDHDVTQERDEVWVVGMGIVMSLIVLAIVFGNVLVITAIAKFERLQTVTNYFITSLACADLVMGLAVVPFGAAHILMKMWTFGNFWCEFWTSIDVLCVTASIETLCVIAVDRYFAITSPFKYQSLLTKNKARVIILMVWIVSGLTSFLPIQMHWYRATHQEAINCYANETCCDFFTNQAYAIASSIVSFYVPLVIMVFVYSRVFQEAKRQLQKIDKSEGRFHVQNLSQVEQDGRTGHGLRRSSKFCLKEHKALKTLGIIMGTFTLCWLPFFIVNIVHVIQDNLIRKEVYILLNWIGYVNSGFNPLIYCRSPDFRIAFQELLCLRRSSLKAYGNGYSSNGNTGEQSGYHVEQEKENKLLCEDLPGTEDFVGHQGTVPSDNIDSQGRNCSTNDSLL
Assay explanation: Adrenergic β2 mediated cAMP production in H292 cells (AlphaScreen), concentration response
Format: cell-based
Assay conditions: fraction relative to the maximum activity determined for formoterol
Answer with a bare number; do not write a unit.

CC(C)c1nc(C(=O)N2CCOC3(CCN(Cc4cc(CCOCCC(=O)N(CCNCCc5ccc(O)c6c5OCC(=O)N6)C5CCCCC5)ccc4Cl)CC3)C2)cs1 [Example 49, ditrifluoroacetate] : 0.9
O=C1COc2c(CCNCCN(C(=O)CCOCCc3cccc(CN4CCC5(CC4)CN(C(=O)[C@@H]4C[C@H]4c4ccccc4)CCO5)c3)C3CCCCC3)ccc(O)c2N1 : 0.4
CCCc1cc(C(=O)N2CCOC3(CCN(Cc4cccc(CCOCCC(=O)N(CCNCCc5ccc(O)c6c5OCC(=O)N6)C5CCCCC5)c4)CC3)C2)cs1 : 1.1
CC(C)c1nc(C(=O)N2CCOC3(CCN(Cc4cccc(CCOCCC(=O)N(CCNCCc5ccc(O)c6c5OCC(=O)N6)Cc5ccccc5)c4F)CC3)C2)cs1 [Example 8, ditrifluoroacetate] : 1.1

Now take the following compound into account.
Recorded β2 Intrinsic Activity (compound O=C1COc2c(CCNCCN(C(=O)CCOCCc3cccc(CN4CCC5(CC4)CN(C(=O)CCOc4ccccc4)CCO5)c3)C3CCCCC3)ccc(O)c2N1 ): 1.1

* * *

Measured on: Adrenergic β2 (Homo sapiens)
Construct: Adherent H292 cells are removed from tissue culture flasks by treatment with Accutase™ cell detachment solution; endogenous in cells; host or cells: H292 cells
Assay explanation: Adrenergic β2 mediated cAMP production in H292 cells, single concentration 1 μM
Assay type: cell-based
Assay conditions: NCI-H292, 1 μM compound, cAMP as percentage of the maximum response generated by 1E-07M formoterol, read-out: β2 % effect @1 uM
Metric: percent of formoterol maximum response at 1 µM (%)
A number alone suffices; assume %.

Worked examples, 6 compounds total:
Cc1cc2ncc(C(=O)N3CCOC4(CCN(Cc5cccc(CCOCCC(=O)N(CCNCCc6ccc(O)c7c6OCC(=O)N7)C6CCCCC6)c5)CC4)C3)c(C)n2n1 : 98
CCOc1ncccc1C(=O)N1CCOC2(CCN(Cc3cccc(CCOCCC(=O)N(CCNCCc4ccc(O)c5c4OCC(=O)N5)C4CCCCC4)c3)CC2)C1 : 105
O=C1COc2c(CCNCCN(C(=O)CCOCCc3cccc(CN4CCC5(CC4)CN(C(=O)c4cnc6ccccc6c4)CCO5)c3)C3CCCCC3)ccc(O)c2N1 : 112
Cc1ccc2[nH]c(C(=O)N3CCOC4(CCN(Cc5cccc(CCOCCC(=O)N(CCNCCc6ccc(O)c7c6OCC(=O)N7)C6CCCCC6)c5)CC4)C3)cc2c1 : 92
Cc1ccoc1C(=O)N1CCOC2(CCN(Cc3cccc(CCOCCC(=O)N(CCNCCc4ccc(O)c5c4OCC(=O)N5)C4CCCCC4)c3)CC2)C1 : 87
CCOc1ccccc1CC(=O)N1CCOC2(CCN(Cc3cccc(CCOCCC(=O)N(CCNCCc4ccc(O)c5c4OCC(=O)N5)C4CCCCC4)c3)CC2)C1 : 112

// assay Adrenergic β2 (Homo sapiens), entry O=C1COc2c(CCNCCN(C(=O)CCOCCc3cccc(CN4CCC5(CC4)CN(C(=O)CCc4nc6ccccc6[nH]4)CCO5)c3)C3CCCCC3)ccc(O)c2N1 , percent of formoterol maximum response at 1 µM value = 109

// assay Adrenergic β2 (Homo sapiens), entry O=C1COc2c(CCNCCN(C(=O)CCOCCc3cccc(CN4CCC5(CC4)CN(C(=O)C(CO)c4ccccc4)CCO5)c3)C3CCCCC3)ccc(O)c2N1 (stereo not shown) , percent of formoterol maximum response at 1 µM value = 100

// assay Adrenergic β2 (Homo sapiens), entry O=C1COc2c(CCNCCN(C(=O)CCOCCc3cccc(CN4CCC5(CC4)CN(C(=O)c4ccc6cccnc6n4)CCO5)c3)C3CCCCC3)ccc(O)c2N1 , percent of formoterol maximum response at 1 µM value = 97

// assay Adrenergic β2 (Homo sapiens), entry Cc1ccccc1CC(=O)N1CCOC2(CCN(Cc3cccc(CCOCCC(=O)N(CCNCCc4ccc(O)c5c4OCC(=O)N5)C4CCCCC4)c3)CC2)C1 , percent of formoterol maximum response at 1 µM value = 94
